Experiment: Tissue biodistribution by LC-MS after 14-day dosing
Format: in vivo, C57BL/6 mice
Details: female, C57BL/6, mouse, liver, ip, 30 mg kg^−1
REPORTED ENDPOINT: concentration at 14 days (ng/g)

* Cc1cc2sc(N)nc2c2cccnc12 [SKA-346] | 22.5

* * *

Test: Tissue biodistribution by LC-MS after 14-day dosing
Type: in vivo, C57BL/6 mice
Conditions: female, C57BL/6, mouse, kidney, ip, 30 mg kg^−1
REPORTED ENDPOINT: concentration at 14 days (ng/g)

- Cc1cc2sc(N)nc2c2cccnc12 [SKA-346]: 60.7

* * *

Molecular target: UniProt:Q9UGI6
Sequence (Q9UGI6 whole entry): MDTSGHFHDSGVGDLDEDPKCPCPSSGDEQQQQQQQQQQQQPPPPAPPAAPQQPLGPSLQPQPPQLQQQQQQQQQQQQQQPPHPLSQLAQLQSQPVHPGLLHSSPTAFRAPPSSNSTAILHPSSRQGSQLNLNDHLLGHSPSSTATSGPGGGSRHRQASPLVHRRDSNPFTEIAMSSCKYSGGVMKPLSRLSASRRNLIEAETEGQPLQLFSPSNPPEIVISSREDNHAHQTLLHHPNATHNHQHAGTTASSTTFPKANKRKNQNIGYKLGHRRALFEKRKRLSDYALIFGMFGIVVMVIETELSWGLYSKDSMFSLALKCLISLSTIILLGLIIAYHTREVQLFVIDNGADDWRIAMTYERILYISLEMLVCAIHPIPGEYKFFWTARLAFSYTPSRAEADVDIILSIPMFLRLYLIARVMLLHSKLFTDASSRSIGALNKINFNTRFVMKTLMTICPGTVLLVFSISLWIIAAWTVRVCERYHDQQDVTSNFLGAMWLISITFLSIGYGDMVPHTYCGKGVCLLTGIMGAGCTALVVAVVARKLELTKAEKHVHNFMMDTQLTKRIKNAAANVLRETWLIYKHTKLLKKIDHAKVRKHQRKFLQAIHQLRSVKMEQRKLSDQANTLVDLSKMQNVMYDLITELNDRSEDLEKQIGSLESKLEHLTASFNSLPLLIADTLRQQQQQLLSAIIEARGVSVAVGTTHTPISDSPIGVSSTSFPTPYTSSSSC
Assay: QPatch-HTX patch-clamp, KCa2.3
Type: cell-based
pEC50: −log10 of the molar value.
REPORTED ENDPOINT: pEC50

• Nc1nc2c(cc(C(F)(F)F)c3ncccc32)s1 = 4.53

* * *

Target: KCa3.1 channel (Homo sapiens, UniProt O15554+P0DP23)
Experiment: QPatch-HTX patch-clamp, KCa3.1 activation
pEC50: −log10 of the molar value.
REPORTED ENDPOINT: pEC50

• Cc1cc2sc(N)nc2c2cccnc12 [SKA-346] = 5.72
• Nc1nc2c(cc(C(F)(F)F)c3ncccc32)s1 [NKV-104] = 5.77

These entries and their values trace back to paper PMC11615718.
